List of pIC50 values.
- Study Target: full-length beta-Catenin (Uniprot ID P35222) (Homo sapiens (Human)) (UniProt P35222)
- Sequence (P35222 whole entry): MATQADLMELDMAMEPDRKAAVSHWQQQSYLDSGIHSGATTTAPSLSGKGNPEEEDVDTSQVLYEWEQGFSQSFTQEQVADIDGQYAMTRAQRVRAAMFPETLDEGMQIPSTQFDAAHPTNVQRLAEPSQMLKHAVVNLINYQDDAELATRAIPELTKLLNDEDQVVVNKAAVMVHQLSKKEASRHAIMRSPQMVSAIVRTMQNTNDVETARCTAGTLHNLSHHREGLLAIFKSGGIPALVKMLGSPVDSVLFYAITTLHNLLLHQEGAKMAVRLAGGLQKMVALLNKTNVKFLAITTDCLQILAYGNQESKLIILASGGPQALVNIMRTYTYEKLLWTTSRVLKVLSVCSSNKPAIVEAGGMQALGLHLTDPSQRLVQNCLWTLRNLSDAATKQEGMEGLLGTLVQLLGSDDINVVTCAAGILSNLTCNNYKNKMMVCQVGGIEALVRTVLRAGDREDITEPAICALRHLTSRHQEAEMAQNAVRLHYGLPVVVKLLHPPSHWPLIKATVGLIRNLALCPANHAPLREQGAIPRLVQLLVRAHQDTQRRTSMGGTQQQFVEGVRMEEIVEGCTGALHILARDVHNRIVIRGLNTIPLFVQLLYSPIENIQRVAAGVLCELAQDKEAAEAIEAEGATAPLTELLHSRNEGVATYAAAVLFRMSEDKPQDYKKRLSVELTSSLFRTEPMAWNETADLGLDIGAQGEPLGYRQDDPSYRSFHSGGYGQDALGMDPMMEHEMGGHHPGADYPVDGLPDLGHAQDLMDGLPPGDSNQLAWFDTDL
- Assay Method Text: fluorescence polarization competition; competitor 5FAM-TCF4(10-53) probe on full-length beta-catenin
Starred links: 1 amine or outer side, 2 acyl side, 3 side chain; linkers in the order of their positions; H or OH if unused. Positions of bridges follow the written chain, without caps; N, C: chain ends. Non-standard residues stand in square brackets, D forms with d. Primed or numbered codes have the meaning given here. PyrS2″ = (S)-3-amino-1-((pent-4-en-1-yloxy)carbonyl)pyrrolidine-3-carboxylic acid (stapling residue), C=CCCCOC(=O)N1CC[C@@](N[*:1])(C(=O)[*:2])C1; B5(4) = 2,2-bis(4-pentenyl)glycine = 2-amino-2-(pent-4-en-1-yl)hept-6-enoic acid (stitching residue), C=CCCCC(CCCC=C)(N[*:1])C(=O)[*:2]; B5(3) = 2,2-bis(4-pentenyl)glycine (stitching residue), C=CCCCC(CCCC=C)(N[*:1])C(=O)[*:2]; Phe(3-COOH) = N[C@@H](Cc1cccc(C(=O)O)c1)C(=O)O; Phe(2-Cl) = N[C@@H](Cc1ccccc1Cl)C(=O)O; Bta = N[C@@H](Cc1csc2ccccc12)C(=O)O; Lys(iPr) = CC(C)NCCCC[C@H](N)C(=O)O; αAllylPro = C=CC[C@@]1(C(=O)O)CCCN1; tBuAla = CC(C)(C)C[C@H](N)C(=O)O; 3Thi = N[C@@H](Cc1ccsc1)C(=O)O; Cha = N[C@@H](CC1CCCCC1)C(=O)O; Thr(ol) = C[C@@H](O)[C@H](N)CO; hSer = N[C@@H](CCO)C(=O)O
# pIC50 = -log10(concentration in molar units)

Example cases with answers are listed next.
[[record]]
binder = "Ac-[αAllylPro]N[Cha][B5(3)]DQ[Lys(iPr)]AFN[PyrS2″]F[Bta]T-NH2 (staple 1-4, 4-11) [I-2112]"
value_reported = 6.30

[[record]]
binder = "Ac-[αAllylPro]D[tBuAla][B5(4)]DD[Lys(iPr)]AFL[PyrS2″][Phe(2-Cl)][Bta][Thr(ol)] (staple 1-4, 4-11) [I-1313]"
value_reported = 7.92

[[record]]
binder = "Ac-[αAllylPro]D[tBuAla][B5(4)]DYAA[Phe(3-COOH)][hSer][PyrS2″][3Thi][Bta]Q-NH2 (staple 1-4, 4-11; also: later eluting HPLC isomer composition) [I-2125]"
value_reported = 7.59


**Query** Recorded pIC50 of Ac-[αAllylPro]N[Cha][B5(4)]DQ[Lys(iPr)]AFN[PyrS2″]F[Bta]H-NH2 (staple 1-4, 4-11) [I-2109] , please.
**Result** 6.87
